- Test system: Arachidonic Acid-Induced Inflammation of the Mouse Ear
- Test: Arachidonic acid-induced mouse ear inflammation
- Type: in vivo, mouse (male Balb/c)
- Test conditions: Mus musculus, 1 h; 50 mg/kg s.c. or i.p.; Table 7A; read-out: % Inhibition of Ear Swelling
Reported values of inhibition in vivo at 50 mg/kg for individual entries

>>> result("c1cc(N2CCCCC2)ccc1-c1nc2n(c1-c1ccc(N3CCCCC3)cc1)CCS2 [Compound 4]")
"22%"
>>> result("CN(C)c1ccc(-c2c(-c3ccc(F)cc3)nc3n2CCS3)cc1 [Compound 10]")
"7%"
>>> result("N#Cc1ccc(-c2nc3n(c2-c2ccc(C#N)cc2)CCS3)cc1 [Compound 13]")
"50%"
>>> result("c1cc(-c2nc3n(c2-c2ccc4c(c2)OCO4)CCS3)ccn1 [Compound 7]")
"62%"

Query inhibition in vivo at 50 mg/kg for CCNc1ccc(-c2nc3n(c2-c2ccc(NCC)cc2)CCS3)cc1 [Compound 17]
38%

Name the recorded inhibition in vivo at 50 mg/kg of the item COc1ccc(-c2nc3n(c2-c2ccc(OC)cc2)CCCS3)cc1 [Compound 20] in your answer.
47%

---

- Tested on: Arachidonic Acid-Induced Inflammation of the Mouse Ear
- Test: Arachidonic acid-induced mouse ear inflammation
- Assay type: in vivo, mouse (male Balb/c)
- Test conditions: Mus musculus, 1 h; 50 mg/kg s.c. or i.p.; Table 7A; read-out: % Inhibition of Ear Swelling
// map inhibition in vivo at 50 mg/kg onto a label; ranges lowest: < 40%; middle: ≥ 40% and < 60%; highest: ≥ 60%

For orientation, consider the following solved cases.
>>> label_value("COc1ccc(-c2nc3n(c2-c2ccc(OC)cc2)CCC3)cc1")
"lowest"
>>> label_value("CCCNc1ccc(-c2nc3n(c2-c2ccncc2)CCS3)cc1")
"lowest"
>>> label_value("c1cc(-c2nc3n(c2-c2ccncc2)CCS3)ccn1")
"lowest"
>>> label_value("CN(C)c1ccc(-c2nc3n(c2-c2ccc(F)cc2)CCS3)cc1")
"middle"
>>> label_value("[O-][S+]1CCn2c1nc(-c1ccc(F)cc1)c2-c1ccncc1 (stereo not shown)")
"highest"

Band of Fc1ccc(-c2c(-c3ccncc3)nc3n2CCS3)cc1 ?
middle

Hello team, could you let me know which band the following compound falls into: c1cc(N2CCCC2)ccc1-c1nc2n(c1-c1ccc(N3CCCC3)cc1)CCS2
middle

Bin this entry: Fc1ccc(-c2c(-c3ccccn3)nc3n2CCS3)cc1
highest

Class label required: COc1ccc(-c2nc3n(c2-c2ccc(F)cc2)CCS3)cc1
highest

Field: class (inhibition in vivo at 50 mg/kg) — entry: Fc1ccc(-c2nc3n(c2-c2ccccn2)CCS3)cc1
highest

---

- System: Arachidonic Acid-Induced Inflammation of the Mouse Ear
- Test: Arachidonic acid-induced mouse ear inflammation
- Assay type: in vivo, mouse (male Balb/c)
- Test conditions: Mus musculus, po, 1 h; 50 mg/kg p.o.; Table 7A; read-out: % Inhibition of Ear Swelling
# cutoff 40% applies to inhibition in vivo at 50 mg/kg; >= gives MET, < gives NOT MET

Example entries begin here.
>>> label_value("CCN(CC)c1ccc(-c2nc3n(c2-c2ccc(N(CC)CC)cc2)CCS3)cc1")
"NOT MET"
>>> label_value("Fc1ccc(-c2nc3n(c2-c2ccc(F)cc2)CCS3)cc1")
"NOT MET"
>>> label_value("O=S1(=O)CCn2c1nc(-c1ccc(F)cc1)c2-c1ccncc1")
"MET"

Hi team, for c1cc(-c2c(-c3ccc(N4CCCC4)cc3)nc3n2CCS3)ccn1 , is the recorded inhibition in vivo at 50 mg/kg at or above 40%?
NOT MET

Is it the case that c1cc2c(cc1-c1nc3n(c1-c1ccc4c(c1)OCO4)CCS3)OCO2 has inhibition in vivo at 50 mg/kg reaching or exceeding 40%?
NOT MET
